Just for reference, the EternaBench riboswitch data is where these values come from.

# System: MS2 coat protein
# assay-details: apparent Kd, MS2 coat protein; higher = weaker binding; RNA-MaP array; FMN 200 µM where present
# details: designed as: OFF switch for flavin mononucleotide; no ligand
apparent Kd values by entry

[
  {
    "residue-string": "GCACGGCAUGUAGGAUAUCGAGCGCCGGGCGCUCGAGAAGGACAUGAGGAUCACCCAUGUAGUCUCAGUGAGAGACUGCUGUGC",
    "apparent Kd / nM": 18.3
  },
  {
    "residue-string": "GGCCGUAAUAAGGAUAUCACUAGCUUCGGCUAGUGAGAAGGUAUUACAUGAGGAUCACCCAUGUGGUCAGGCCA",
    "apparent Kd / nM": 279
  },
  {
    "residue-string": "GUCAAAACCAUACUGGUCGACGGUCAGGAUAUACAUGAGGAUCACCCAUGUGCUAUUGAUACUAUGUAGAAGGGACCCACCGCA",
    "apparent Kd / nM": 16.2
  },
  {
    "residue-string": "CCUGAGUCAGGAUAUUGUACCGGCCUGAAGCCAGACCGACCCAAGAAGGGACAUGAGGAUCACCCAUGUGAAAA",
    "apparent Kd / nM": 23.1
  },
  {
    "residue-string": "UUUAUAUAGUAAGGAUAUGUAUUAUUUUUUACAACAGAAGGUACUGACAUGAGGAUCACCCAUGUUUUAGUGUGGGCAUGUAGU",
    "apparent Kd / nM": 296
  },
  {
    "residue-string": "UGACGGAGCUGAGGAUAUACAUGAGGAUCACCCAUGUAAGAUCUCCAGGAAACUGGAGAUCAAAAGUAGAAGGCAGCUCCGUCA",
    "apparent Kd / nM": 15.4
  },
  {
    "residue-string": "AGGUACGGUCGAUCAUAUCAAGGUAGAAGGCGACUGGGAAUGUGAGACAUGAGGAUCACCCAUGUCGAGGAUAUACCUGAAAGU",
    "apparent Kd / nM": 88.9
  }
]

----------
# Test system: MS2 coat protein
# assay-details: apparent Kd, MS2 coat protein; higher = weaker binding; RNA-MaP array; FMN 200 µM where present
# details: designed as: OFF switch for flavin mononucleotide; no ligand
Tick class 1 if apparent Kd is 20 nM or greater. Tick class 0 if apparent Kd is less than 20 nM.

[
  {
    "residue-string": "AGGAGAAAUGUAGGAUAUGGGCAUAUAUAUGGGCAAAGCGCAUAUAUAUGCCCAGAAGGACAUGAGGAUCACCCAUGUUUCCCU",
    "classification": "class 0"
  },
  {
    "residue-string": "UGAUCUAUGUAGAAGGCCCAUAUCUAUAUUUAGGGAGGAUAUACAUGAGGAUCACCCAUGUAUAGAGCGAGUGGACUCGUCACC",
    "classification": "class 0"
  },
  {
    "residue-string": "AAAGAACUAGGAUAUACAUGAGGAUCACCCAUGUGCAGCUUAACGGCUCACACCUUAUGUAGAAGGAGUGACCG",
    "classification": "class 0"
  },
  {
    "residue-string": "AAAAAGUCAGGAUAUGCGAAGGCGUCUGAUAGACGAGGCUAGCAGAAGGGACAUGAGGAUCACCCAUGUAAAAA",
    "classification": "class 1"
  },
  {
    "residue-string": "GGAAACUACGAGAAGGACAUGUGGUCCUUCAGUUACAUGAGGAUCACCCAUGUAGGAUAUCGUAGUUUCAGGAUCGUGAGAUCA",
    "classification": "class 1"
  },
  {
    "residue-string": "AUUUAGUCAGGAUAUACAUGAGGAUCACCCAUGUAAACUUUUAGUUUAAUUUGAAUGUGUAGAAGGGACAUUUU",
    "classification": "class 1"
  },
  {
    "residue-string": "GAAUAAUUGAUCCUUUUUUAUUACAUGAGGAUCACCCAUGUGCAGGAUAUCGAUUGUUUUAGUUUCGAGAAGGGCAAGAACUGU",
    "classification": "class 1"
  },
  {
    "residue-string": "UGUGCGUAUGUGAGGAUAUGCUGGUCCUUGGAUCAGCAGAAGGCACAUGAGGAUCACCCAUGUGGUGUCGUACU",
    "classification": "class 1"
  },
  {
    "residue-string": "CAUUUACAGGGAGGAUAUACAUGAGGAUCACCCAUGUCAUCAUACGAUCUUUCUUUUGUAUGAGUGUAGAAGGCCCAACUACCA",
    "classification": "class 0"
  },
  {
    "residue-string": "UUGGACAGCUAGAACUGUUAAGUACAUGAGGAUCACCCAUGUCAGGAUAUCCUUCCGCAAUGCGAGGAGAAGGGACAGGGUCCC",
    "classification": "class 1"
  },
  {
    "residue-string": "CUCAUGUUAGGAUAUGCGCCCAGCCUAGUGGCCGGGCUCUAGCAGAAGGAACAUGAGGAUCACCCAUGUUUGCA",
    "classification": "class 1"
  },
  {
    "residue-string": "GACUCGAAUGUAGGAUAUGCUGAGGAUAACUCAGCAGAAGGACAUGAGGAUCACCCAUGUAAAUGAGUGAAUAAUAAACGAGUC",
    "classification": "class 1"
  },
  {
    "residue-string": "UCCGCUCGAGGAUAUACAUGAGGAUCACCCAUGUUUCCCUGUUGUUUGGCCUCAGGAUGUAGAAGGCGACGCUA",
    "classification": "class 0"
  },
  {
    "residue-string": "GCCUUAUCGGUCAGGAUAUACACCCGUCAGUUGUUGUAGAAGGGACAUGAGGAUCACCCAUGUACAUUACAUUG",
    "classification": "class 1"
  },
  {
    "residue-string": "CUGUUCCGUGUAGGAUAUGCAUAUUCCCAUUAUGCAGAAGGACAUGAGGAUCACCCAUGUAUGUUAUUAUCAUGUGUUACAUGC",
    "classification": "class 1"
  },
  {
    "residue-string": "AAUAUGAGCUGGUAAAUAAAACCGACAUGAGGAUCACCCAUGUAGGAUAUCAGCACGAUAAGUGCUGAGAAGGACAUCCAGCUC",
    "classification": "class 0"
  },
  {
    "residue-string": "GUCGUGUGAGGAUAUGAUUAAUAGACGGGAUUGCGACUGCAUCAGAAGGCACAUGAGGAUCACCCAUGUAUGAA",
    "classification": "class 0"
  },
  {
    "residue-string": "AACCGACAUGAGGAUCACCCAUGUCAGGAUAUGGACUGACACCGAAAGAGUGGAGGAACCAGAAGGGACUGGGC",
    "classification": "class 1"
  },
  {
    "residue-string": "CUCAUGUGAGGAUAUGCUGCUCGUCACGAAAGUGAUGAGUAGCAGAAGGUACAUGAGGAUCACCCAUGUAAAUA",
    "classification": "class 1"
  },
  {
    "residue-string": "UUUUAACAUGAGGAUCACCCAUGUGAGGAUAUCGAAAUUUAUAUUAAUAUUAUUUAUUCGAGAAGGCACAUUUU",
    "classification": "class 1"
  },
  {
    "residue-string": "GAAAACAGAGGAUAUACAUGAUUAUGACGAAAGUCAUAAAAACAUGAGGAUCACCCAUGUAGAAGGCUGAAGAA",
    "classification": "class 1"
  },
  {
    "residue-string": "AAGGAGUUAGGAUAUGCUGCUCGUCACUUGCGUGAUGAGUAGCAGAAGGGACAUGAGGAUCACCCAUGUAAAAA",
    "classification": "class 1"
  },
  {
    "residue-string": "CUUAUGUGAGGAUAUGGUGUUGGUCACAGGAAAAAGAUUCUCCAGAAGGCACAUGAGGAUCACCCAUGUAGUGA",
    "classification": "class 1"
  }
]

----------
# Tested on: MS2 coat protein
# assay-details: apparent Kd, MS2 coat protein; higher = weaker binding; RNA-MaP array; FMN 200 µM where present
# details: designed as: OFF switch for flavin mononucleotide; no ligand
Decision: apparent Kd >= 30 nM yields met, all other cases yield not met.

[
  {
    "residue-string": "GUAGAGUCAGGAUAUACGAGAUCGAAAGAUCGUCGAUCCUUACAUGAGGAUCACCCAUGUAGAAGGGACUCUAC",
    "classification": "not met"
  },
  {
    "residue-string": "UCCCGGGUGCAGAAGGGAUAGGCCUAUUUUCGUGGUAUCCAAACCUAACAUGAGGAUCACCCAUGUCAGGAUAUGCCCACGGGA",
    "classification": "not met"
  },
  {
    "residue-string": "UAAUAAUAAUAAUAGCAGAAUUACAUGAGGAUCACCCAUGUAUAGGAUAUCGUCAGGAAUACUGACGAGAAGGAUACAAACUGC",
    "classification": "not met"
  },
  {
    "residue-string": "CCGAAUAUGCAGGAUAUCUUAUCGGAAACGAUAAGAGAAGGGUAAACAUGAGGAUCACCCAUGUUCCUUAACGG",
    "classification": "not met"
  },
  {
    "residue-string": "GUUAUUGACAAGAAGGCAAACAUGAGGAUCACCCAUGUUCUACAUGUAUAUUGAGGAUAUUGCCAAUACAUGAGGAUCACCCAG",
    "classification": "met"
  },
  {
    "residue-string": "CAGUACUGAGGAUAUACAUGAGGAUCACCCAUGUGUUCCAGCUAGGAAACUGGCAAAAGUAGAAGGCAGUACUG",
    "classification": "not met"
  },
  {
    "residue-string": "GUGAGGUCAGGAUAUGCAUGGCGGGACUUGCGUCGUGGCGUGGAGAAGGGACAUGAGGAUCACCCAUGUGGAGA",
    "classification": "met"
  },
  {
    "residue-string": "CUGCUCCGUGUAGGAUAUGCAUACUCCCAUUAUGCAGAAGGACAUGAGGAUCACCCAUGUAUGUUAUUAUCACGUGUUGCGUAC",
    "classification": "not met"
  },
  {
    "residue-string": "UGAGAUGUAGUAGGAUAUCAGGUUACAUGAGGAUCACCCAUGUUAGAUUGGUGGAUAGAUGUUGAUGAGAAGGACUUUUGAGUG",
    "classification": "met"
  },
  {
    "residue-string": "UGAUCGAGAGAUCUUAGAUUCUGGUAGGAUAUACAUAAAAUGCGCUUUACAUGAGGAUCACCCAUGUAGAAGGACUAGAGUCUA",
    "classification": "not met"
  },
  {
    "residue-string": "AACUUACAUGAGGAUCACCCAUGUGAGGAUAUAUAAAUAUAUAUGUUAUUGUAUGUUUGUAGAAGGCGCGUGAU",
    "classification": "met"
  },
  {
    "residue-string": "CCUUAAAUUGUAAGGAUAUUAAAGCUGCUGAGUUAUAAGAAGGUACAUGAGGAUCACCCAUGUUCGGCAGGGUC",
    "classification": "not met"
  },
  {
    "residue-string": "AAAGAGCGAGGAUAUGCGUGCCGGUGCGGCCAGCCGAUGUGACAUGAGGAUCACCCAUGUAGAAGGCGCAGAAA",
    "classification": "not met"
  },
  {
    "residue-string": "UUUUAACAUGAGGAUCACCCAUGUGAGGAUAUCGAAAUUUAUAUUAAUAUUUAUAAAUCGAGAAGGCACAUUUU",
    "classification": "met"
  }
]
